- assay-overview: Inhibition of 20s constitutive proteasome beta 5 subunit chymotrypsin-like activity in rabbit erythrocytes using Suc-LLVY-AMC as substrate incubated for 15 mins prior to substrate addition measured after 45 mins by fluorescence assay
- Type: cell-based, Oryctolagus cuniculus
- particulars: read-out: IC50
observed-property: pIC50
In textbook form, pIC50 equals minus log to base ten of the concentration in mol/L.

Example compounds with recorded pIC50:
INSERT INTO assay_data (chemical_structure, observed_property, experimental_value) VALUES
  ('C[C@@]12OC(=O)[C@]1([C@@H](O)[C@@H]1C=CCCC1)NC(=O)[C@@H]2CCCl', 'pIC50', 8.59),
  ('CC1(C)OC(=O)c2c1ccnc2S', 'pIC50', 4.10);

Pending compound:
pIC50 reading for Cc1cc(=O)oc2cc[nH]c(=O)c12 : 4.53

* * *

- test-target: Cathepsin B (Homo sapiens)
- assay-overview: Inhibition of human cathepsin B using Z-RR-AMC as substrate by fluorescence assay
Activity calls are given as the source filed them. The calls are words filed in the database; no cut-off is given here.
observed-property: inhibition

INSERT INTO assay_data (chemical_structure, test_target, experimental_value) VALUES
  ('CC1(C)OC(=O)c2c1ccnc2N', 'Cathepsin B (Homo sapiens)', 'inactive'),
  ('CC1(C)OC(=O)C(C(N)=S)=C1c1ccccc1', 'Cathepsin B (Homo sapiens)', 'inactive'),
  ('O=C1OC2(CCCCC2)c2ccnc(S)c21', 'Cathepsin B (Homo sapiens)', 'inactive'),
  ('CC1(C)OC(=O)c2c1ccnc2Nc1ccc(Cl)cc1', 'Cathepsin B (Homo sapiens)', 'inactive');

* * *

- test-target: Calpain-1 catalytic subunit (Homo sapiens)
- assay-overview: Inhibition of human calpain-1 using Suc-LLVY-AMC as substrate by fluorescence assay
Activity calls are given as the source filed them. The rule behind the calls is not given here.
observed-property: inhibition

Below are worked cases with known answers.
INSERT INTO measurements (compound, experimental_value) VALUES
  ('CC1(C)OC(=O)c2c1ccnc2Nc1ccc(S(N)(=O)=O)cc1', 'inactive'),
  ('CC1(C)OC(=O)c2c1ccnc2S', 'inactive'),
  ('CC(N)C1=C(c2ccccc2)C(C)(C)OC1=O (configuration not stated)', 'inactive'),
  ('CC1(C)OC(=O)c2c1ccnc2NCC(O)COc1ccc(Cl)cc1 (configuration not stated)', 'inactive'),
  ('CC1(C)OC(=O)c2c1ccnc2Nc1ccc(Cl)cc1', 'inactive'),
  ('CCC1(C)OC(=O)c2c1ccnc2N (configuration not stated)', 'inactive');

Case Nc1nccc2c1C(=O)OC21CCCCC1 , Calpain-1 catalytic subunit (Homo sapiens), inhibition recorded as inactive

* * *

- assay-overview: Inhibition of 20s constitutive proteasome beta 1 subunit caspase-like activity in rabbit erythrocytes using Z-LLE-betaNA as substrate incubated for 15 mins prior to substrate addition measured after 45 mins by fluorescence assay
- Assay type: cell-based, Oryctolagus cuniculus
- particulars: read-out: IC50
observed-property: IC50

Example entries and their recorded answers appear below.
INSERT INTO results (compound, observed_property, experimental_value) VALUES
  ('O=C1OC2(CCCCC2)c2ccnc(O)c21', 'IC50', '27.8 µM'),
  ('Cc1nccc2c1C(=O)OC21CCCCC1', 'IC50', '16.1 µM'),
  ('Nc1nccc2c1C(=O)OC21CCCCC1', 'IC50', '8.4 µM'),
  ('CCC1(C)OC(=O)c2c1ccnc2N (centres undefined)', 'IC50', '7 µM'),
  ('CC1(C)OC(=O)c2c1ccnc2O', 'IC50', '16.7 µM'),
  ('C=C1c2c(ncn(CCCn3ccnc3)c2=O)OC1(C)C', 'IC50', '47 µM'),
  ('CC1(C)OC(=O)c2c1ccnc2NCC(O)COc1ccccc1 (centres undefined)', 'IC50', '48.1 µM'),
  ('CC1(C)OC(=O)c2c1ccnc2N', 'IC50', '7.9 µM');

The reported IC50 of the compound C[C@@]12OC(=O)[C@]1([C@@H](O)[C@@H]1C=CCCC1)NC(=O)[C@@H]2CCCl was 0.46 µM

* * *

- Species on record: Oryctolagus cuniculus
- assay-overview: Inhibition of 20s constitutive proteasome beta 1 subunit caspase-like activity in rabbit erythrocytes using Z-LLE-betaNA as substrate at 100 uM incubated for 15 mins prior to substrate addition measured after 45 mins by fluorescence assay relative to control
- Type: cell-based
observed-property: inhibition (%)
# value in %; strip the unit string

Answered cases to consult:
INSERT INTO results (chemical_structure, experimental_value) VALUES
  ('CC1(C)OC(=O)c2c1ccnc2Nc1ccc(Cl)cc1', 41.5),
  ('CC1(C)OC(=O)c2c1ccnc2N1CCCCC1', 41.6);

response.value for CC1(C)OC(=O)c2c1ccnc2S (field: inhibition) = 48

Lab note: O=C1OC2(CCCCC2)c2ccnc(S)c21 gave inhibition of 20

For CC1(C)OC(=O)c2c1ccnc2NNC(N)=S the compound record lists inhibition as 41

* * *

- assay-overview: Inhibition of 20s constitutive proteasome beta 1 subunit caspase-like activity in rabbit erythrocytes using Z-LLE-betaNA as substrate incubated for 15 mins prior to substrate addition measured after 45 mins by fluorescence assay
- Assay type: cell-based, Oryctolagus cuniculus
observed-property: IC50

Some molecules with known IC50 results, for comparison:
INSERT INTO results (molecule, experimental_value) VALUES
  ('CC1(C)OC(=O)c2c1ccnc2NCC(O)COc1ccc(Cl)cc1 (configuration not stated)', 'Not Active'),
  ('CC1(C)OC(=O)c2c1ccnc2NCC(O)COc1ccc(F)cc1 (configuration not stated)', 'Not Active'),
  ('CC1(C)OC(=O)C(C(N)=S)=C1c1ccccc1', 'Not Active'),
  ('O=c1c2c(-c3ccc(Cl)cc3)csc2ncn1CCc1ccccc1', 'Not Active'),
  ('CCOC(=O)C1=C(/C=C/N(C)C)C(C)(C)OC1=O', 'Not Active'),
  ('C=C1c2c(ncn(CCCN3CCOCC3)c2=O)OC1(C)C', 'Not Active'),
  ('Cc1sc2ncn(CCc3ccc(Cl)cc3)c(=O)c2c1C', 'Not Active'),
  ('Cc1sc2ncn(CCCn3ccnc3)c(=O)c2c1C', 'Not Active');

// sample C=C1c2c(ncn(CC(O)COc3ccccc3)c2=O)OC1(C)C (configuration not stated) , its IC50 was Not Active

Reported IC50 for C=C1c2c(nc[nH]c2=O)OC1(C)C was Not Active

So for CC(N)C1=C(c2ccccc2)C(C)(C)OC1=O (configuration not stated) , the logged IC50 turned out to be Not Active

Lab note: measured IC50 of O=c1c2c(-c3ccc(Cl)cc3)csc2ncn1CCc1ccc(Cl)cc1 was Not Active

Query CC12CCCC=C1c1c(nc[nH]c1=O)O2 (configuration not stated) yields IC50 of Not Active

IC50 reported for this molecule O=c1c2c(-c3ccc(Cl)cc3)csc2ncn1CCc1ccc(F)cc1 : Not Active

C=C1c2c(nc[nH]c2=O)OC1(C)c1ccccc1 (configuration not stated) yielded IC50 of Not Active

Entry Cc1cc(=O)oc2cc[nH]c(=O)c12 — recorded IC50 = Not Active

All figures here come from ChEMBL document CHEMBL3124927.
